Consider the following Ki data for Coagulation factor X (Homo sapiens), collected from several reports.
Return type: number; implicit unit nM.

So, N=C(N)c1cccc(C(=O)N[C@@H](C(=O)NCc2ccc(CN)cc2)c2ccccc2)c1 ? Its Ki was 500

The compound listed as N=C(N)c1cccc(C2=NOC(Cn3ncnn3)(C(=O)Nc3ccc(-c4ccccc4S(N)(=O)=O)cc3)C2)c1 (stereo not drawn) shows Ki equal to 1.6

// Nc1cc(C2=NOC(CNS(N)(=O)=O)(C(=O)Nc3ccc(-c4ccccc4S(N)(=O)=O)cn3)C2)ccc1Cl (racemic) : Ki value = 5.5

Record summary for C[C@@H](C(=O)N1CCOCC1)N1CC[C@H](NS(=O)(=O)c2nc3ccc(Cl)cc3s2)C1=O : reported Ki = 4160

Item: Nc1ncc(C(=O)NC[C@@H]2CN(c3ccc(N4CCC(C(=O)O)CC4)cc3)C(=O)O2)s1.O=C(O)C(F)(F)F | Ki: 88200

Lab note: N=C(N)c1cccc(C[C@H](NS(=O)(=O)c2ccc3ccccc3c2)C(=O)N2CCC[C@H](C(=O)NCc3ccccc3)C2)c1 gave Ki of 17000

The reported value for N=C(N)c1cccc(Cn2c(C(=O)NCc3cccc(C(F)(F)F)c3)cc3c(O)cccc32)c1 in terms of Ki is 476

====

The entries below pair compounds with Ki values for Coagulation factor X (Homo sapiens), as found in several publications.
Hi! Could you tag entries with Ki below 800 nM as T, and those at or above as F? Much appreciated.

Regarding Cc1c(F)c(Oc2cccc(C(=N)N)c2)nc(Oc2cc(C(=O)N(C)C)cc(C(=O)N(C)C)c2)c1F , kindly confirm whether its Ki is beneath 800 nM. T

Say whether its Ki is strictly beneath 800 nM. Entry: CS(=O)(=O)c1ccccc1N1CCC(NC(=O)c2cc(C(F)(F)F)nn2-c2ccc3onc(N)c3c2)CC1=O (configuration not stated) T

Strictly below 800 nM in Ki? CC1(C)[C@@H]2C[C@H]3OB([C@H](CCCCN)NC(=O)Cn4nc(CCC(=O)O)nc4Cc4ccccc4)O[C@@]3(C)[C@H]1C2 F

hey, is Ki for COc1ccc(-n2nc(C(N)=O)c3c2C(=O)N(c2ccc(C(C)(C)CN4CCOCC4)cc2)CC3)cc1 lower than 800 nM or not? T

Strictly below 800 nM in Ki? Cc1cc2ccc1[C@@H](C)COC(=O)Nc1ccc(C3(C(=O)O)CCC3)c(c1)CN(C)C(=O)[C@@H]2Nc1ccc2c(N)ncc(F)c2c1 F

A record lists N=C(N)c1cccc(COC(=O)c2cc3cc(OCc4ccccc4)ccc3n2Cc2cccc(C(=N)N)c2)c1 . Is its Ki below 800 nM? T

Quick check: Ki of COC(=O)CNC(=O)CC1(C(=O)Nc2ccc(C(=N)N)cc2)CC(c2cccc(C(=N)N)c2)=NO1 (configuration not stated) under 800 nM? T

Determine whether this compound shows Ki lower than 800 nM (ties excluded): Cc1cc(C(=O)Nc2ccc(-c3ccccc3S(N)(=O)=O)cc2F)n(-c2cc3ccccc3cc2S(C)(=O)=O)n1 T

Dear reviewer, please state whether N=C(N)c1cccc(C(=O)N[C@@H](C(=O)N2CCN(c3ccccc3)CC2)c2ccccc2)c1 has Ki strictly beneath 800 nM. T

Please check: Ki for Cc1c(F)c(Oc2ccccc2)nc(Oc2cccc(C(=N)N)c2)c1F , strictly under 800 nM or not? F

Ki strictly < 800 nM for this compound? Cc1cc(OCCN(C)c2ccncc2)cc(OS(=O)(=O)c2ccccc2Cl)c1 F

# check: Ki < 800 nM for CS(=O)(=O)N1CCC(Oc2ccc(NC/C=C/c3cc(C(=N)N)ccc3O)cc2C(F)(F)F)CC1 T

Given the entry CC(=O)O.CCOC(=O)C1CCN(c2ccc(N3C[C@H](CNCc4ccc(C(=N)N)cc4)OC3=O)cc2)CC1 , would its reported Ki be below 800 nM? F

Does C[C@]1(c2ccccc2)C[C@@H](c2cccc(-c3ccc(C#N)cc3C(=O)O)c2)Nc2ccc(C(=N)N)cc21 (racemic) have Ki strictly under 800 nM? F

Determine if O=C1CN(S(=O)(=O)c2ccc(-c3ccc(Cl)cc3)cc2)CCN1Cc1cc2c[nH]ccc-2n1 shows Ki strictly lower than 800 nM. F

Please let me know if Cc1cc(C(=O)Nc2ccc(C3=NCCN3C)cc2F)n(-c2cc3ccccc3cc2S(C)(=O)=O)n1 shows Ki below 800 nM. T

Below 800 nM on Ki? Entry Cc1ccc(NC(=O)c2ccccc2Br)c(C(=O)Nc2ccc(Cl)cc2)c1 F
